# method-summary: Acute toxicity (LD50)
# assay-conditions: mouse, in vivo, po; single peroral dose, 14 days observation, mice; read-out: Peroraler LD50-Wert (converted)
quantity-measured: LD50 at 336 h (mg/kg)

* CC(=O)N1OCC(=O)NC12CCCCC2 | 1000
* CC(=O)N1OCC(=O)NC1c1ccccc1 (centres unmarked) | 1190
* CC(=O)N1OCC(=O)NC1c1cccs1 (centres unmarked) | 800
* CC(=O)N1OCC(=O)NC1c1ccc(F)cc1 (centres unmarked) | 800
* O=C1NC(=O)C(c2ccccc2)(c2ccccc2)N1 [Vergleichssubstanz A, 5,5-Diphenylhydantoin, reference compound] | 279
* CC(=O)N1OCC(=O)NC1c1cccc2ccccc12 (centres unmarked) | 800
* CC(=O)N1OCC(=O)N(C(C)=O)C1c1ccccc1 (centres unmarked) | 1000
* CCOC(=O)N1OCC(=O)NC1c1ccccc1 (centres unmarked) | 1000
* CC(=O)N1OCC(=O)NC1c1ccc(C(=O)O)cc1 (centres unmarked) | 1000
* CC(=O)N1OCC(=O)NC1c1ccc(Br)cc1 (centres unmarked) | 800
* CCC1(c2ccccc2)NC(=O)N(C)C1=O (centres unmarked) [Vergleichssubstanz B, 3-Methyl-5-äthyl-5-phenylhydantoin, reference compound] | 476
* CC(=O)N1OC(C)C(=O)NC1c1ccccc1 (racemic) | 1000
* O=C1CONC(c2ccc(O)cc2)N1 (centres unmarked) | 800
* CC(=O)N1OC(Cc2ccccc2)C(=O)NC1c1ccccc1 (racemic) | 1000
